- method summary: In vivo pharmacokinetics, plasma (UPLC-MS/MS)
- Parameters: species or system rat
- run conditions: male, SD; rat plasma; tail intravenous injection BA/AH-DPI saline solution 9 mg/kg; 10 min; read-out: Blood concentration of BA
reported metric: concentration at 10 min

compound	reported metric	value
O=C(O)[C@H]1O[C@@H](Oc2cc3oc(-c4ccccc4)cc(=O)c3c(O)c2O)[C@H](O)[C@@H](O)[C@@H]1O [BA, baicalin]	concentration at 10 min	933 ng/mL

====

- method summary: In vivo pharmacokinetics, plasma (UPLC-MS/MS)
- Design: species or system rat
- run conditions: male, SD; rat plasma; tail intravenous injection BA/AH-DPI saline solution 9 mg/kg; 2 min; read-out: Blood concentration of BA

compound	concentration at 2 min [µg/mL]
O=C(O)[C@H]1O[C@@H](Oc2cc3oc(-c4ccccc4)cc(=O)c3c(O)c2O)[C@H](O)[C@@H](O)[C@@H]1O [BA, baicalin]	11.7
